- tested_target: WNK3 (human) (UniProt Q9BYP7)
- Sequence (Q9BYP7 whole entry, looked up): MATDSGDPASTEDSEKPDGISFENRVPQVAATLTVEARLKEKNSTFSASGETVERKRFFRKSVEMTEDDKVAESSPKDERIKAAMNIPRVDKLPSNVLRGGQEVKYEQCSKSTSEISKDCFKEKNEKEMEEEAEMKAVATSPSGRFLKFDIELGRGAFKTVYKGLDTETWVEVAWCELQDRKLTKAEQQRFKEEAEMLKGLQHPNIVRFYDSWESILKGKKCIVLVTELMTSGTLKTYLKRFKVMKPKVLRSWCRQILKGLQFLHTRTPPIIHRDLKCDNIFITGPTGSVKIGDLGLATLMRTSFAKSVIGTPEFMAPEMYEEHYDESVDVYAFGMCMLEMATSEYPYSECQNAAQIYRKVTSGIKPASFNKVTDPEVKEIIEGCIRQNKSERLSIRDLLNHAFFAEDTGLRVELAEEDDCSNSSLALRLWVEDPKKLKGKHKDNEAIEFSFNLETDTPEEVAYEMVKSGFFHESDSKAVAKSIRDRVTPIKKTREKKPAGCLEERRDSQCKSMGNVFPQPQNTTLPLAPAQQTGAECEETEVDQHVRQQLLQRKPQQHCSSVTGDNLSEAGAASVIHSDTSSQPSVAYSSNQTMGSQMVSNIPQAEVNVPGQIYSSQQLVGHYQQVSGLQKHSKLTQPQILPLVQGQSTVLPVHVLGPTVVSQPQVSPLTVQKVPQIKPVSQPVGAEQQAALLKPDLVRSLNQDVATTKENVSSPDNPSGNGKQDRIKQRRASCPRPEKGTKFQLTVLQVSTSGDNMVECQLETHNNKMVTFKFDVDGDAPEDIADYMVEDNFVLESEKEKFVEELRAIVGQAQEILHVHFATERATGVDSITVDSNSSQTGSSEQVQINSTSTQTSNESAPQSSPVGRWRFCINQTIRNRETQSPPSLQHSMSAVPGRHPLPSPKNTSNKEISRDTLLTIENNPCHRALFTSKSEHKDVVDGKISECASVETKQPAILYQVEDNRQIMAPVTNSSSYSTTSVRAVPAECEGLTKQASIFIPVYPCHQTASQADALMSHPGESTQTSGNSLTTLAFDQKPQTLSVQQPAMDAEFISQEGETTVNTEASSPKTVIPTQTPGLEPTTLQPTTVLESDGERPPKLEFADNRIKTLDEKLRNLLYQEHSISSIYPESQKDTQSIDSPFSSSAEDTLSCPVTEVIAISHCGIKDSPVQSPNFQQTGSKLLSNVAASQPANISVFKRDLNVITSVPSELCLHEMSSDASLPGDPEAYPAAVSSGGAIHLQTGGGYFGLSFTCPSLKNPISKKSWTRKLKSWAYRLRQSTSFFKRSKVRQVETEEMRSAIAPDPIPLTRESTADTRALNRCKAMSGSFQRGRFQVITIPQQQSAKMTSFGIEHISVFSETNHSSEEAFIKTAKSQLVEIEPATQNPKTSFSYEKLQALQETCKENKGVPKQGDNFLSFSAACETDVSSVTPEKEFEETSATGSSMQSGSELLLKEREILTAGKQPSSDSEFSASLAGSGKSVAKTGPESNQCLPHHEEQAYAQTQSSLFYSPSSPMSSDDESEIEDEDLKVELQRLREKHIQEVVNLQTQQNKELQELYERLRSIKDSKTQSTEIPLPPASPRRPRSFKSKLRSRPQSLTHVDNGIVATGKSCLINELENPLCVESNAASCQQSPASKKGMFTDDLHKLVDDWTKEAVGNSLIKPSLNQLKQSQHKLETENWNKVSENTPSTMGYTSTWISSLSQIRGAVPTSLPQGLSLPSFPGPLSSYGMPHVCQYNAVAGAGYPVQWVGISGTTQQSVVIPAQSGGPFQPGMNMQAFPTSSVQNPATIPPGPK
- protocol_description: radiometric filter-binding kinase assay, Kinase HotSpot
- test_conditions: compound 0.5 µM; ATP 10 µM
Each record here notes measured residual activity.

| item_smiles | residual activity [%] |
| --- | --- |
| Cn1c2ccccc2c2c3c(c4c5ccccc5n(CCC#N)c4c21)CNC3=O | 93.1 |
| COc1cc2ncnc(Nc3ccc(Oc4ccccc4)cc3)c2cc1OC | 87.8 |
| C[C@@H]1CCN(C(=O)CC#N)C[C@@H]1N(C)c1ncnc2[nH]ccc12 | 104 |

---

- tested_target: CHEK2 (human)
- protocol_description: radiometric filter-binding kinase assay, Kinase HotSpot
- test_conditions: compound 0.5 µM; ATP 10 µM

| item_smiles | residual activity, % |
| --- | --- |
| N#C/C(=C\c1ccc(O)c(O)c1)C(=O)NCc1ccccc1 | 97.5 |
| CO[C@@H]1[C@H](N(C)C(=O)c2ccccc2)C[C@H]2O[C@]1(C)n1c3ccccc3c3c4c(c5c6ccccc6n2c5c31)C(=O)NC4 | 85.1 |
| CN(C)CCCn1cc(C2=C(c3c[nH]c4ccccc34)C(=O)NC2=O)c2ccccc21 | 68.5 |
| NC(=O)c1cccc(-c2cc(Nc3ccc(OC(F)(F)F)cc3)ncn2)c1 | 101 |
| COc1ccc(Cl)cc1NC(=O)Nc1cc(C)nc2ccccc12 | 101 |
| COc1ccc(C(=O)Nc2sc3c(c2C(N)=O)CCCC3)cc1OC | 93 |
| Fc1ccc(-c2nc3n(c2-c2ccncc2)CCS3)cc1 | 97.7 |
| C[C@@H]1CCN(C(=O)CC#N)C[C@@H]1N(C)c1ncnc2[nH]ccc12 | 104 |
| CCCCc1c(-c2ccc(OC)cc2)[nH]c2nccnc12 | 72.8 |
| O=C1NC(=O)c2c1c1c3ccccc3[nH]c1n1cncc21 | 21.2 |
| O=C1C(Cl)=C(N2C(=O)CCC2=O)C(=O)c2ccccc21 | 95.7 |
